Sourced from paper PMC10914731

- Assay type: in vitro ADME, Rat
- conditionNotes: Rat
*1 amine or outer side, *2 acyl side, *3 side chain or, on linkers, in order; H or OH if unused. Where a SMILES comes first, the peptide text is derived from it. [ ]: non-standard residue; d: D form. X5 = C=CCn1cc(C[C@@H](C(=O)[*:2])N(C)[*:1])c2ccccc21; X7 = C=CCn1cc(C[C@H](N[*:1])C(=O)[*:2])c2ccccc21; NMeLeu(5-OH,4R) = CN[C@@H](C[C@@H](C)CO)C(=O)O; Phe(βR-OMe) = CO[C@H](c1ccccc1)[C@H](N)C(=O)O; Trp(1-Me) = Cn1cc(C[C@H](N)C(=O)O)c2ccccc21; NMeL = CN[C@@H](CC(C)C)C(=O)O; Pra = C#CC[C@H](N)C(=O)O
assayMetric: Hepatocyte Stability Rat QH (%)

compound	assayMetric	measuredNumber
C=CCn1cc(C[C@H]2C(=O)N(C)[C@@H](C[C@@H](C)CO)C(=O)N[C@@H](C)C(=O)N[C@@H]([C@H](OC)c3ccccc3)C(=O)N[C@@H](C(C)C)C(=O)N(C)[C@@H](CC(C)C)C(=O)N[C@@H](C(C)C)C(=O)N2C)c2ccccc21 [SI-60] (cyclo(A[Phe(βR-OMe)]V[NMeL]V[X5][NMeLeu(5-OH,4R)]))	Hepatocyte Stability Rat QH	57.215
C=CCn1cc(C[C@@H]2NC(=O)[C@H](C(C)C)NC(=O)[C@H](CC(C)C)N(C)C(=O)[C@H](C(C)C)NC(=O)[C@H]([C@H](OC)c3ccccc3)NC(=O)[C@H](C)NC(=O)[C@H](C[C@@H](C)CO)N(C)C2=O)c2ccccc21 [Compound 13] (cyclo(A[Phe(βR-OMe)]V[NMeL]V[X7][NMeLeu(5-OH,4R)]))	Hepatocyte Stability Rat QH	65.282
C#CC[C@@H]1NC(=O)[C@H](CC(C)C)N(C)C(=O)[C@H](C(C)C)NC(=O)[C@H]([C@H](OC)c2ccccc2)NC(=O)[C@H](C)NC(=O)[C@H](C[C@@H](C)CO)N(C)C(=O)[C@H](Cc2cn(C)c3ccccc23)NC1=O [Compound 10] (cyclo(A[Phe(βR-OMe)]V[NMeL][Pra][Trp(1-Me)][NMeLeu(5-OH,4R)]))	Hepatocyte Stability Rat QH	69.830

###

Recorded DC50, one value per entry.
- system: ClpC1-NTD substrate, M. tuberculosis ClpC1P1P2 (Mycobacterium tuberculosis)
- assayExplanation: biochemical
- Type: biochemical
- conditionNotes: Mtb; mean of the measurements; read-out: DC50, Mean
*1 amine or outer side, *2 acyl side, *3 side chain or, on linkers, in order; H or OH if unused. Where a SMILES comes first, the peptide text is derived from it. [ ]: non-standard residue; d: D form. Trp(1-(1,1-Me2-allyl)) = C=CC(C)(C)n1cc(C[C@H](N)C(=O)O)c2ccccc21; Ala(3R-Me,3-isobutenyl) = CC(C)=C[C@@H](C)[C@H](N)C(=O)O; X1 = C#CCn1cc(C[C@H](N[*:1])C(=O)[*:2])c2ccccc21; NMeLeu(5-OH,4R) = CN[C@@H](C[C@@H](C)CO)C(=O)O; Phe(βR-OMe) = CO[C@H](c1ccccc1)[C@H](N)C(=O)O; Trp(1-Me) = Cn1cc(C[C@H](N)C(=O)O)c2ccccc21; NMeL = CN[C@@H](CC(C)C)C(=O)O; Pra = C#CC[C@H](N)C(=O)O
assayMetric: DC50

molecule	result
C#CCn1cc(C[C@@H]2NC(=O)[C@H](C(C)C)NC(=O)[C@H](CC(C)C)N(C)C(=O)[C@H](C(C)C)NC(=O)[C@H]([C@H](OC)c3ccccc3)NC(=O)[C@H](C)NC(=O)[C@H](C[C@@H](C)CO)N(C)C2=O)c2ccccc21 [Compound 5] (cyclo(A[Phe(βR-OMe)]V[NMeL]V[X1][NMeLeu(5-OH,4R)]))	> 100 µM
C#CC[C@@H]1NC(=O)[C@H](CC(C)C)N(C)C(=O)[C@H](C(C)C)NC(=O)[C@H]([C@H](OC)c2ccccc2)NC(=O)[C@H](C)NC(=O)[C@H](C[C@@H](C)CO)N(C)C(=O)[C@H](Cc2cn(C)c3ccccc23)NC1=O [Compound 10] (cyclo(A[Phe(βR-OMe)]V[NMeL][Pra][Trp(1-Me)][NMeLeu(5-OH,4R)]))	> 100 µM
C=CC(C)(C)n1cc(C[C@@H]2NC(=O)[C@H]([C@H](C)C=C(C)C)NC(=O)[C@H](CC(C)C)N(C)C(=O)[C@H](C(C)C)NC(=O)[C@H]([C@H](OC)c3ccccc3)NC(=O)[C@H](C)NC(=O)[C@H](C[C@@H](C)CO)N(C)C2=O)c2ccccc21 [dCymC] (cyclo([Trp(1-(1,1-Me2-allyl))][NMeLeu(5-OH,4R)]A[Phe(βR-OMe)]V[NMeL][Ala(3R-Me,3-isobutenyl)]))	> 100 µM

###

- assayExplanation: Microsomal stability, human
- Format: in vitro ADME
- conditionNotes: Human
*1 amine or outer side, *2 acyl side, *3 side chain or, on linkers, in order; H or OH if unused. Where a SMILES comes first, the peptide text is derived from it. [ ]: non-standard residue; d: D form. Trp(1-(1,1-Me2-allyl)) = C=CC(C)(C)n1cc(C[C@H](N)C(=O)O)c2ccccc21; Ala(3R-Me,3-isobutenyl) = CC(C)=C[C@@H](C)[C@H](N)C(=O)O; X3 = C#CCOc1ccc([C@@H](OC)[C@H](N[*:1])C(=O)[*:2])cc1; X7 = C=CCn1cc(C[C@H](N[*:1])C(=O)[*:2])c2ccccc21; NMeLeu(5-OH,4R) = CN[C@@H](C[C@@H](C)CO)C(=O)O; Phe(βR-OMe) = CO[C@H](c1ccccc1)[C@H](N)C(=O)O; Trp(1-Me) = Cn1cc(C[C@H](N)C(=O)O)c2ccccc21; NMeL = CN[C@@H](CC(C)C)C(=O)O

compound	Microsomal Stability Human QH
CO[C@H](c1ccccc1)[C@@H]1NC(=O)[C@H](C)NC(=O)[C@H](C[C@@H](C)CO)N(C)C(=O)[C@H](Cc2cn(Cc3cn(CCCCCn4cc(Cn5cc(C[C@@H]6NC(=O)[C@H](C(C)C)NC(=O)[C@H](CC(C)C)N(C)C(=O)[C@H](C(C)C)NC(=O)[C@H]([C@H](OC)c7ccccc7)NC(=O)[C@H](C)NC(=O)[C@H](C[C@@H](C)CO)N(C)C6=O)c6ccccc65)nn4)nn3)c3ccccc23)NC(=O)[C@H](C(C)C)NC(=O)[C@H](CC(C)C)N(C)C(=O)[C@H](C(C)C)NC1=O [Compound 9]	43.3%
CO[C@H](c1ccccc1)[C@@H]1NC(=O)[C@H](C)NC(=O)[C@H](C[C@@H](C)CO)N(C)C(=O)[C@H](Cc2cn(Cc3cn(CCOCCOCCOCCOCCn4cc(Cn5cc(C[C@H]6C(=O)N(C)[C@@H](C[C@@H](C)CO)C(=O)N[C@@H](C)C(=O)N[C@@H]([C@H](OC)c7ccccc7)C(=O)N[C@@H](C(C)C)C(=O)N(C)[C@@H](CC(C)C)C(=O)N[C@@H](C(C)C)C(=O)N6C)c6ccccc65)nn4)nn3)c3ccccc23)N(C)C(=O)[C@H](C(C)C)NC(=O)[C@H](CC(C)C)N(C)C(=O)[C@H](C(C)C)NC1=O [Compound 27]	>88.400%
COC(c1ccccc1)C1NC(=O)C(C)NC(=O)C(CC(C)CO)N(C)C(=O)C(Cc2cn(Cc3cn(CCOCCOCCOCCOCCn4cc(Cn5cc(CC6NC(=O)C(C(C)C)NC(=O)C(CC(C)C)N(C)C(=O)C(C(C)C)NC(=O)C(C(OC)c7ccccc7)NC(=O)C(C)NC(=O)C(CC(C)CO)N(C)C6=O)c6ccccc65)nn4)nn3)c3ccccc23)NC(=O)C(C(C)C)NC(=O)C(CC(C)C)N(C)C(=O)C(C(C)C)NC1=O (stereo not drawn) [Compound 8]	>88.4 >88.4 >88.4%
C#CCOc1ccc([C@@H](OC)[C@@H]2NC(=O)[C@H](C)NC(=O)[C@H](C[C@@H](C)CO)N(C)C(=O)[C@H](Cc3cn(C)c4ccccc34)NC(=O)[C@H](C(C)C)NC(=O)[C@H](CC(C)C)N(C)C(=O)[C@H](C(C)C)NC2=O)cc1 [SI-38] (cyclo(A[X3]V[NMeL]V[Trp(1-Me)][NMeLeu(5-OH,4R)]))	83.600%
C=CC(C)(C)n1cc(C[C@@H]2NC(=O)[C@H]([C@H](C)C=C(C)C)NC(=O)[C@H](CC(C)C)N(C)C(=O)[C@H](C(C)C)NC(=O)[C@H]([C@H](OC)c3ccccc3)NC(=O)[C@H](C)NC(=O)[C@H](C[C@@H](C)CO)N(C)C2=O)c2ccccc21 [dCymC] (cyclo([Trp(1-(1,1-Me2-allyl))][NMeLeu(5-OH,4R)]A[Phe(βR-OMe)]V[NMeL][Ala(3R-Me,3-isobutenyl)]))	65.700%
C=CCn1cc(C[C@@H]2NC(=O)[C@H](C(C)C)NC(=O)[C@H](CC(C)C)N(C)C(=O)[C@H](C(C)C)NC(=O)[C@H]([C@H](OC)c3ccccc3)NC(=O)[C@H](C)NC(=O)[C@H](C[C@@H](C)CO)N(C)C2=O)c2ccccc21 [Compound 13] (cyclo(A[Phe(βR-OMe)]V[NMeL]V[X7][NMeLeu(5-OH,4R)]))	>88.400%
